Test: chemical genetic growth profiling, strain panel (AID 1159580);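 further: tested at 20 µM; growth read once vehicle control cultures reached saturation at 30 °C; 1 = growth at the plate median or of vehicle wells; lower values mean less growth of the strain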
Settings: S. cerevisiae deletion strains, growth OD, locus YFR010W, strain ubp6
Out of some 5,500 compounds screened, about 2,000 (36%) were called active. Not shown: some 18% with an inconclusive outcome. No stated cut-off is given here; in the data, active means normalized growth mostly below about 0.91 (no sharp cut-off); inconclusive means no clear call, values can overlap the other calls; inactive means mostly above about 0.92. The list shows a part of the results.
Select the matching outcome among active, inactive

| COMPOUND | ANSWER LABEL |
| --- | --- |
| CC(C)C(C)/C=C/C(C)[C@H]1CCC2C3=CCC4CC(=O)CC[C@]4(C)C3CC[C@@]21C (stereo partly drawn) | inactive |
| CC1C[C@H]2CC(=O)[C@H]3CCCN4CCC[C@H]2[C@]34C1 (stereo partly drawn) | inactive |
| Clc1cccc(Cl)c1NC1=NCCN1 | inactive |
| NC(N)=NS(=O)(=O)c1ccc(N)cc1 | inactive |
| O=C(O)CN(CC(=O)O)Cc1cc2c(-c3ccccc3C(=O)O)c3cc(CN(CC(=O)O)CC(=O)O)c(=O)cc-3oc2cc1O | inactive |

[Q] What call does the record list for CC(C)NCC(O)COc1cccc2ccccc12 (stereo not drawn) ?
[A] inactive

[Q] Let us now turn to CC(=O)OC1CCC2(C)C(=CC=C3C2CCC2(C)C3CCC2C(C)/C=C/C(C)C(C)C)C1(C)C (stereo not drawn)
[A] inactive

[Q] Let us now turn to `Oc1ccc(Cl)cc1Cc1cc(Cl)ccc1O`
[A] active

----------
Experiment: chemical genetic growth profiling, strain panel (AID 1159580)
Settings: S. cerevisiae deletion strains, growth OD, locus YNL197C, strain WHI3, hits give low values
The campaign covered roughly 5,500 compounds. About 2,000 (36%) were called active. Not shown: some 18% with an inconclusive outcome. The list shows a part of the results.
MEASURED ENDPOINT: normalized growth
Give bare numbers.

Can you give me normalized growth for all of these, one by one?
1. CC(C)(Oc1ccc(C2CC2(Cl)Cl)cc1)C(=O)O (stereo not drawn)
2. C[Se]C[C@H](N)C(=O)O
3. CCCCCCCCCCCCCC(=O)O[C@@H]1[C@@H](C)[C@@]2(O)[C@@H](C=C(CO)C[C@@]3(O)C(=O)C(C)=C[C@@H]23)C2C(C)(C)[C@@]21OC(C)=O (stereo partly drawn)

[A]
1. 1.08
2. 0.981
3. 1.02

----------
Assay: chemical genetic growth profiling, strain panel (AID 1159580);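 further: tested at 20 µM; growth read once vehicle control cultures reached saturation at 30 °C; 1 = growth at the plate median or of vehicle wells; lower values mean less growth of the strain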
Details: S. cerevisiae deletion strains, growth OD, locus YCL069W, strain vba3, hits give low values
Among all 5,500 compounds or so, about 2,000 (36%) were called active. Not shown: some 18% with an inconclusive outcome. This is one part of the list.
MEASURED ENDPOINT: normalized growth
Answers are plain numbers.

Here is how some compounds turned out for normalized growth.
| COMPOUND | normalized growth |
| --- | --- |
| CCCC(=O)O[C@]1(C(=O)CO)CCC2[C@@H]3CCC4=CC(=O)CC[C@]4(C)C3[C@@H](O)C[C@@]21C (stereo partly specified) | 1 |
| O=C1NC(=O)C(=O)C(=O)N1 | 0.989 |
| C[C@H]1CC[C@@H](C(C)(C)O)CC2=C1CC[C@@H]2C | 0.997 |
| NC(N)=NS(=O)(=O)c1ccc(N)cc1 | 0.991 |
| CC1(C)NC(=O)N(c2ccc([N+](=O)[O-])c(C(F)(F)F)c2)C1=O | 0.98 |
| O=S1OCC2C(CO1)C1(Cl)C(Cl)=C(Cl)C2(Cl)C1(Cl)Cl (stereo unspecified) | 0.99 |
| CC(C)C(=O)Nc1ccc([N+](=O)[O-])c(C(F)(F)F)c1 | 1.02 |
| COc1ccc(-c2coc3cc(OC)cc(OC)c3c2=O)cc1 | 0.996 |

Can you give me normalized growth for all of these, one by one?
1. COc1cc(-c2coc3cc(OC)c(OC)c(OC)c3c2=O)cc(OC)c1OC
2. COc1cc(OC)c2c(=O)c(-c3ccccc3)coc2c1
3. COC(=O)[C@@H]1OC(=O)[C@H]2O[C@@]23[C@@]1(C)CCC1[C@@]2(C)CCC(=O)C(C)(C)C2C[C@@H](OC(C)=O)[C@]13C (stereo partly specified)

[A]
[1.01, 0.982, 0.987]

----------
For each entry below, report its normalized growth value.
Experiment: chemical genetic growth profiling, strain panel (AID 1159580);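 further: tested at 20 µM; growth read once vehicle control cultures reached saturation at 30 °C; 1 = growth at the plate median or of vehicle wells; lower values mean less growth of the strain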
Details: S. cerevisiae deletion strains, growth OD, locus YAL021C, strain ccr4, hits give low values
In all, about 5,500 compounds went through this assay and about 2,000 (36%) were called active. About 18% were inconclusive and are not listed. The list shows a part of the results.
Answers are plain numbers.

Here is how some compounds turned out for normalized growth.
| COMPOUND | MEASURED ENDPOINT | RESULT |
| --- | --- | --- |
| CC1=CC2C(CC1=O)C(C)=CCC2C(C)C (centres undefined) | normalized growth | 1.02 |
| CC(=O)OCC(OC(C)=O)C(OC(C)=O)C(OC(C)=O)C(OC(C)=O)C(COC(C)=O)OC(C)=O (centres undefined) | normalized growth | 0.998 |
| O=c1cc(-c2ccccc2O)oc2cc(O)ccc12 | normalized growth | 1.05 |
| COC(=O)[C@@H]1OC(=O)[C@H]2O[C@@]23[C@@]1(C)CCC1[C@@]2(C)CCC(=O)C(C)(C)C2C[C@@H](OC(C)=O)[C@]13C (some centres undefined) | normalized growth | 1.04 |
| COc1ccc([C@H]2Oc3cc(OC)cc(OC)c3C[C@H]2O)cc1 | normalized growth | 1 |
| O=C(Cn1ccnc1[N+](=O)[O-])NCCO | normalized growth | 1.02 |
| O=C1OC(c2ccc(O)cc2)(c2ccc(O)cc2)c2ccccc21 | normalized growth | 0.977 |
| COc1cc([C@@H]2c3cc4c(c(O)c3C[C@H]3COC(=O)[C@@H]32)OCO4)cc(OC)c1OC | normalized growth | 0.995 |
| C=CC(N)CCC(=O)O (centres undefined) | normalized growth | 0.971 |
| CO/N=C(\C(=O)N[C@@H]1C(=O)N2C(C(=O)O)=C(CSc3nc(=O)c(O)nn3C)CS[C@H]12)c1csc(N)n1 | normalized growth | 0.982 |

Can you give me normalized growth for all of these, one by one?
1. NC(=O)c1cccc(N)c1
2. C=CCCCCCCCCCCCC(O)CC(O)COC(C)=O (centres undefined) (tested in a mixture with another compound)
3. NC(N)=NS(=O)(=O)c1ccc(N)cc1
4. O=c1cc[nH]c(=S)[nH]1

[A]
1. 0.979
2. 1.01
3. 0.976
4. 1.03

----------
Test: chemical genetic growth profiling, strain panel (AID 1159580);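 further: tested at 20 µM; growth read once vehicle control cultures reached saturation at 30 °C; 1 = growth at the plate median or of vehicle wells; lower values mean less growth of the strain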
Details: S. cerevisiae deletion strains, growth OD, locus YMR058W, strain fet3, hits give low values
Counter-ions that a name gives are not always drawn. Among all 5,500 compounds or so, about 2,000 (36%) were called active. Roughly 18% stayed inconclusive and do not appear here. The list shows a part of the results. Where a SMILES comes first, the peptide text is derived from it. The star is where a group is joined. Tfa = O=C(C(F)(F)F)*
For each entry below, report its normalized growth value.
Give bare numbers.

Here is how some compounds turned out for normalized growth.
| COMPOUND | normalized growth |
| --- | --- |
| CCCCN(CCCC)CCCOC(=O)c1ccc(N)cc1 | 0.999 |
| Cn1c(=O)c2[nH]cnc2n(C)c1=O | 1.02 |
| C=C1C(=O)OC2CC1C(OC(C)=O)C/C(C)=C/CC/C(C)=C/CC[C@]2(C)O (stereo partly specified) | 0.99 |
| CCOC(=O)c1ccc(O)cc1 | 1.02 |
| CC(C)NCC(O)c1cc(O)cc(O)c1 (stereo unspecified) | 0.996 |

Can you give me normalized growth for all of these, one by one?
1. COc1ccc(-c2coc3cc(OC)cc(OC)c3c2=O)cc1
2. Cc1cc(NC(=O)C2=C(O)c3ccccc3S(=O)(=O)N2C)no1
3. CCCCNc1ccc(C(=O)OCCN(C)C)cc1
4. CCCCCCCCCCCCCCCC(=O)OC1C(SC)OC(C(NC(=O)C2CC(CCC)CN2C)C(C)Cl)C(O)C1O (stereo unspecified)
5. CC(C)C(C)/C=C/C(C)[C@H]1CCC2C3=CCC4CC(=O)CC[C@]4(C)C3CC[C@@]21C (stereo partly specified)
6. C=CC(N)CCC(=O)O (stereo unspecified)
7. Nc1nc2ncc(=O)[nH]c2c(=O)[nH]1
8. CO/N=C(\C(=O)N[C@@H]1C(=O)N2C(C(=O)O)=C(COC(C)=O)CS[C@H]12)c1csc(N)n1

[A]
1. 0.987
2. 0.976
3. 1.02
4. 0.977
5. 1.01
6. 0.98
7. 0.988
8. 0.99

Can you give me normalized growth for all of these, one by one?
1. OC(Cn1cncn1)(Cn1cncn1)c1ccc(F)cc1F
2. Nc1ccn(C2O[C@H](CO)[C@@H](O)[C@@H]2O)c(=O)n1 (stereo partly specified)
3. CCCCN1CCCCC1C(=O)Nc1c(C)cccc1C (stereo unspecified)
4. CC(C)C(C)/C=C/C(C)C1CCC2C3=CC=C4CC(O)CCC4(C)C3CCC21C (stereo unspecified)
5. O=S1OCC2C(CO1)C1(Cl)C(Cl)=C(Cl)C2(Cl)C1(Cl)Cl (stereo unspecified)
6. Cc1cc(-c2ccccc2)nnc1NCCN1CCOCC1
7. Cc1c(Cl)cccc1Nc1ccccc1C(=O)O
8. N[C@@H](CC(=O)N1CCn2c(nnc2C(F)(F)F)C1)Cc1cc(F)c(F)cc1F

[A]
[0.987, 0.997, 0.979, 0.956, 0.976, 0.988, 0.79, 0.977]

Can you give me normalized growth for all of these, one by one?
1. CCCCOC(=O)c1ccc(N)cc1
2. CC1(C)O[C@H]2[C@H](O)C[C@](O)(C(N)=O)C[C@H]2O1
3. CO/N=C(\C(=O)NC1C(=O)N2C(C(=O)OC(C)OC(C)=O)=C(COC(N)=O)CSC12)c1ccco1 (stereo unspecified)

[A]
[0.881, 1.02, 0.996]

Can you give me normalized growth for all of these, one by one?
1. COC(=O)C1=CCCN(C)C1
2. CCN(CC)C(=O)c1cccc(C)c1
3. COc1ccc(CCN2CCC(Nc3nc4ccccc4n3Cc3ccc(F)cc3)CC2)cc1
4. CC(C)C(NC(=O)C(Cc1ccc(O)cc1)NC(=O)C(NC(=O)C(F)(F)F)C(C)C)C(=O)O (stereo not drawn) (Tfa-Val-Tyr-Val-OH; configuration not given here)
5. CC(=O)Oc1c(C)cccc1C(=O)O
6. CC1C[C@H]2CC(=O)[C@H]3CCCN4CCC[C@H]2[C@]34C1 (stereo partly specified)
7. CC(C)NC[C@H](O)COc1cccc2ccccc12

[A]
1.03
1.04
0.865
0.982
1.02
1.01
0.995
